Just for reference, patent US20260132127A1 is where these values come from.

# tgt: human TRH-DE (Homo sapiens)
# Sequence (Q9UKU6 1-1069): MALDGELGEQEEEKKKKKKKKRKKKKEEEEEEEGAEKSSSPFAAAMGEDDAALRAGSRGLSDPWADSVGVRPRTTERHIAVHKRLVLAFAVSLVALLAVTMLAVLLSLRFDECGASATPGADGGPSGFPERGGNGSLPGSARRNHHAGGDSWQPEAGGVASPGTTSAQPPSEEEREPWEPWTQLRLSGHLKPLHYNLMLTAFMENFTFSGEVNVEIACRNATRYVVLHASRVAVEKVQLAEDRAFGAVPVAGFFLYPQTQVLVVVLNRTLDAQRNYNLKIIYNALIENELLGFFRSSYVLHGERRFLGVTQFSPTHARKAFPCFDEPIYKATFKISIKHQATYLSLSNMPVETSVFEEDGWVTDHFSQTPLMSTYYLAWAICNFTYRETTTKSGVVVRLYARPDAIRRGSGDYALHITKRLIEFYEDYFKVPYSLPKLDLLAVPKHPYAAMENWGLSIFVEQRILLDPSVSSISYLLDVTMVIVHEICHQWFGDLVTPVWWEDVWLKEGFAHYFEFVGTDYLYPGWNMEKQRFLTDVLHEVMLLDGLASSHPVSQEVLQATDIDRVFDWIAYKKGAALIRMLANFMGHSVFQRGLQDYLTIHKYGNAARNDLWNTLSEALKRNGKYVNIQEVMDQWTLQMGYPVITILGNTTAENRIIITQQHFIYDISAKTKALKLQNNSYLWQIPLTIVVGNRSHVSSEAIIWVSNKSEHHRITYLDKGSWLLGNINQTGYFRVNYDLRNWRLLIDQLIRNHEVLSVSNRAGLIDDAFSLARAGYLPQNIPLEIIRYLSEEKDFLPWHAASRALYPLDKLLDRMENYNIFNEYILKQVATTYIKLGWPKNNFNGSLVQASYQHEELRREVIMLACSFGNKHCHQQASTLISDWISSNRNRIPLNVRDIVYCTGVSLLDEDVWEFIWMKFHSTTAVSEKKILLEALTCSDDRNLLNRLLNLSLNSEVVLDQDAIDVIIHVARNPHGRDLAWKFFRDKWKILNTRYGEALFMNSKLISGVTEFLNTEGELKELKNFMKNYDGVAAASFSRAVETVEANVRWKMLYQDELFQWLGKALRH
readout.name: IC50 (nM)

[I] C[C@@H]1COc2noc(C3CC3)c2C(=O)N1C1CC2(C1)CN(S(=O)(=O)c1ccccc1F)C2
[II] C[C@@H]1COc2c(c(C3CC3)nn2C)C(=O)N1C1CC2(C1)CN(S(=O)(=O)c1ccccc1F)C2
[III] C[C@@H]1CCn2c(nnc2-c2ccccc2)C(=O)N1C1CC2(C1)CN(S(=O)(=O)c1ccccc1F)C2
[IV] C[C@@H]1COc2cc(N3CCC(F)(F)CC3)ncc2C(=O)N1C1CC2(C1)CN(S(=O)(=O)c1ccccc1F)C2
INPUT: Which order do the items above take when sorted by IC50 from high to low? Answer format: list of labels, ordered as asked.
OUTPUT: III, I, II, IV
